- Tested on: P388 mouse leukemia cells
- RUN PARAMETERS: 92 h
Where a SMILES comes first, the peptide text is derived from it. [ ]: non-standard residue; d: D form. The star is where a group is joined. NHCH2CH2OH = OCCN*; For = O=C*
VALUE KIND: cell viability/%

[[record]]
compound = "CC(C)C[C@@H](NC(=O)[C@H](Cc1c[nH]c2ccccc12)NC(=O)[C@@H](CC(C)C)NC(=O)[C@H](Cc1c[nH]c2ccccc12)NC(=O)[C@@H](CC(C)C)NC(=O)[C@H](Cc1c[nH]c2ccccc12)NC(=O)[C@@H](CC(C)C)NC(=O)[C@@H](NC(=O)[C@H](NC(=O)[C@H](C)NC(=O)[C@H](NC(=O)[C@H](C)NC(=O)CNC(=O)[C@@H](NC=O)C(C)C)C(C)C)C(C)C)C(C)C)C(=O)N[C@@H](Cc1c[nH]c2ccccc12)C(=O)NCCO [compound 3308] (For-VGA[dV]A[dV]V[dL]W[dL]W[dL]W[dL]W-NHCH2CH2OH)"
value_kind = "cell viability/%"
endpoint_value = "0.1%"


====

- Test system: Streptococcus pyogenes SSI-9
- METHOD NOTES: Antibacterial activity assay of bead-derived peptides (three concentrations)
- Format: cell-based
- Parameters: key: +++: inhibition by the 640-fold diluted peptide solution; ++: inhibition by the 160-fold diluted solution; +: inhibition by the 40-fold diluted solution; -: no inhibition
- RUN PARAMETERS: S. pyogenes, bead-derived peptide solution, three concentrations
Where a SMILES comes first, the peptide text is derived from it. [ ]: non-standard residue; d: D form. The star is where a group is joined. NHCH2CH2OH = OCCN*; For = O=C*
VALUE KIND: antibacterial activity

[[record]]
compound = "CC(C)C[C@@H](NC(=O)[C@H](Cc1c[nH]c2ccccc12)NC(=O)[C@H](NC(=O)[C@H](Cc1c[nH]c2ccccc12)NC(=O)[C@H](NC(=O)[C@@H](NC(=O)[C@H](NC(=O)[C@H](C)NC(=O)[C@H](NC(=O)[C@H](C)NC(=O)CNC(=O)[C@@H](NC=O)C(C)C)C(C)C)C(C)C)C(C)C)C(C)C)C(C)C)C(=O)N[C@@H](Cc1c[nH]c2ccccc12)C(=O)N[C@@H](C(=O)N[C@@H](Cc1c[nH]c2ccccc12)C(=O)NCCO)C(C)C [compound 5678] (For-VGA[dV]A[dV]V[dV]W[dV]W[dL]W[dV]W-NHCH2CH2OH)"
endpoint_value = "++"

[[record]]
compound = "CC(C)C[C@@H](NC(=O)[C@H](C)NC(=O)[C@H](NC(=O)[C@H](C)NC(=O)CNC(=O)[C@@H](NC=O)C(C)C)[C@H](C)O)C(=O)N[C@H](C(=O)N[C@H](CC(C)C)C(=O)N[C@@H](Cc1c[nH]c2ccccc12)C(=O)N[C@H](CC(C)C)C(=O)N[C@@H](Cc1c[nH]c2ccccc12)C(=O)N[C@@H](C(=O)N[C@@H](Cc1c[nH]c2ccccc12)C(=O)N[C@H](CC(C)C)C(=O)N[C@@H](Cc1c[nH]c2ccccc12)C(=O)NCCO)C(C)C)C(C)C [compound 789] (For-VGA[dT]A[dL]V[dL]W[dL]W[dV]W[dL]W-NHCH2CH2OH)"
endpoint_value = "-"

[[record]]
compound = "CC(C)C[C@@H](NC(=O)[C@H](C)NC(=O)CNC(=O)[C@@H](NC=O)C(C)C)C(=O)N[C@@H](C)C(=O)N[C@@H](C(=O)N[C@H](C(=O)N[C@H](CC(C)C)C(=O)N[C@@H](Cc1c[nH]c2ccccc12)C(=O)N[C@@H](C(=O)N[C@@H](Cc1c[nH]c2ccccc12)C(=O)N[C@H](CC(C)C)C(=O)N[C@@H](Cc1c[nH]c2ccccc12)C(=O)N[C@H](CC(C)C)C(=O)N[C@@H](Cc1c[nH]c2ccccc12)C(=O)NCCO)C(C)C)C(C)C)[C@H](C)O [compound 611] (For-VGA[dL]A[dT]V[dL]W[dV]W[dL]W[dL]W-NHCH2CH2OH)"
endpoint_value = "-"

[[record]]
compound = "CC(C)C[C@@H](NC(=O)[C@H](Cc1c[nH]c2ccccc12)NC(=O)[C@H](NC(=O)[C@H](Cc1c[nH]c2ccccc12)NC(=O)[C@@H](CC(C)C)NC(=O)[C@@H](NC(=O)[C@H](NC(=O)[C@H](C)NC(=O)[C@H](NC(=O)[C@H](C)NC(=O)CNC(=O)[C@@H](NC=O)C(C)C)C(C)C)C(C)C)C(C)C)C(C)C)C(=O)N[C@@H](Cc1c[nH]c2ccccc12)C(=O)N[C@@H](C(=O)N[C@@H](Cc1c[nH]c2ccccc12)C(=O)NCCO)C(C)C [compound 5526] (For-VGA[dV]A[dV]V[dL]W[dV]W[dL]W[dV]W-NHCH2CH2OH)"
endpoint_value = "+"

